Where do the numbers come from? From patent US20230295119A1.

molecular target: TYK2 JH2 domain (Homo sapiens (Human)); test: TYK2 JH2 NanoBRET assay; type: binding; conditions: Table 20, read-out: TYK2 IC50
Sequence (P29597 589-875): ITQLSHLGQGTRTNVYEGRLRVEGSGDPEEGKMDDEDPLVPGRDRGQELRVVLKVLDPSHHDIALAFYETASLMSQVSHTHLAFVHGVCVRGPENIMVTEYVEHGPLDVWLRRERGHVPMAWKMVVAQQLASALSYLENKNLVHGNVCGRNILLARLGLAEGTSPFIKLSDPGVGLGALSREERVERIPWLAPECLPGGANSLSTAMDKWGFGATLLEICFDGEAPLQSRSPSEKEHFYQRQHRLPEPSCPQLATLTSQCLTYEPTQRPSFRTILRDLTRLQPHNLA
quantity kind: IC50

Ask: IC50 lookup needed for CCC(=O)c1cnc(NC(=O)CC2CCN(C)CC2)cc1Nc1cccc(-c2ncn(C)n2)c1OC [Compound 23A] , thanks.
Result: 5 to 50 nM

Continuing:
Ask: IC50 lookup needed for CCC(=O)c1cnc(Nc2ccc(S(C)(=O)=O)cn2)cc1Nc1ccc(CO)cc1OC [Compound 13X] , thanks.
Result: 50 to 500 nM

Ask: IC50 lookup needed for CCC(=O)c1cnc(NC(=O)[C@@H]2C[C@H]2C(=O)O)cc1Nc1cccc(-c2ncn(C)n2)c1OC [Compound 22C] , thanks.
Result: ≥ 500 nM

Ask: IC50 lookup needed for CCC(=O)c1cnc(Nc2cnc(CCN3CCCC3)cn2)cc1Nc1cccc(-c2ncn(C)n2)c1OC [Compound 11J] , thanks.
Result: 5 to 50 nM

Ask: IC50 lookup needed for COc1c(-c2ncn(C)n2)ccnc1Nc1cc(Nc2ccc(-n3ccnc3)cn2)ncc1C(=O)C1CC1 [Compound 15R] , thanks.
Result: 5 to 50 nM

Ask: IC50 lookup needed for CCC(=O)c1cnc(Nc2ccc([C@@H](C)N3CC(O)C3)cn2)cc1Nc1cccc(-c2ncn(C)n2)c1OC [Compound 9HH] , thanks.
Result: 5 to 50 nM

Ask: IC50 lookup needed for CCC(=O)c1cnc(Nc2ccc(OCC3COC3)cn2)cc1Nc1cccc(-c2ncn(C)n2)c1OC [Compound 18AA] , thanks.
Result: < 5 nM

* * *

target: UniProtKB O60674
Sequence (O60674 whole entry): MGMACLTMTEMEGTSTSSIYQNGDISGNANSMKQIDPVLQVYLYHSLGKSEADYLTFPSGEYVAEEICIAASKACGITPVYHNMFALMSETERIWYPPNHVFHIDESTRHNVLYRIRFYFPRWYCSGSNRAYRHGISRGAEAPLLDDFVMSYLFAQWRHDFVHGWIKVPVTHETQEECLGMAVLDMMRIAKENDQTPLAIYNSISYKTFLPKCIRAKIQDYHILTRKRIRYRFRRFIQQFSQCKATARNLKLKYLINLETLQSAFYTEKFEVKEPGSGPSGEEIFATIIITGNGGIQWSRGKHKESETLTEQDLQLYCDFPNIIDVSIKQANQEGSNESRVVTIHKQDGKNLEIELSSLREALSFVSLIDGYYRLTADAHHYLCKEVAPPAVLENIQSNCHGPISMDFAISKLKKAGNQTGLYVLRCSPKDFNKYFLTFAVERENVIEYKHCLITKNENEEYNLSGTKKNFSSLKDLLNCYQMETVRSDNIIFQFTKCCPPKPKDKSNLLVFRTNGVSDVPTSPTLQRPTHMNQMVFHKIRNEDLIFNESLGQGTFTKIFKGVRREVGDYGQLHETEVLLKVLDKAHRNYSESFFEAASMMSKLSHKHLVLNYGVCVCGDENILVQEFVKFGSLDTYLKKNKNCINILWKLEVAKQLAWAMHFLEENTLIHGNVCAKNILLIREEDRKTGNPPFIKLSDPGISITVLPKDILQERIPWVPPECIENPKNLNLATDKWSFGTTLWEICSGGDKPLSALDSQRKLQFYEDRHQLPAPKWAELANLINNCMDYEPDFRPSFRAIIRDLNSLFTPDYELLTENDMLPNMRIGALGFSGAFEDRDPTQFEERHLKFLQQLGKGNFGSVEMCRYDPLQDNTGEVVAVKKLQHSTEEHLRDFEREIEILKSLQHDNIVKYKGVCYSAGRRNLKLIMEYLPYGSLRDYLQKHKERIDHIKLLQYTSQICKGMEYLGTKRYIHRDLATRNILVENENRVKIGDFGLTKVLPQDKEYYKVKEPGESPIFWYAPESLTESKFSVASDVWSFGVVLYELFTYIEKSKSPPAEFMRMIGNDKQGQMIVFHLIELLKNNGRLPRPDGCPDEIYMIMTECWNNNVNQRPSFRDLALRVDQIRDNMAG
pIC50: −log10 of the molar value.
Quick reference for pIC50 among some molecules

Below: 3 molecules and their reported pIC50.
Ask: pIC50 lookup needed for CCC(=O)c1cnc(NC(=O)CCN2CCCC2)cc1Nc1cccc(-c2ncn(C)n2)c1OC [Compound 23D] , thanks.
Result: ≤ 6.30

Ask: pIC50 lookup needed for CCC(=O)c1cnc(Nc2ccc(S(=O)(=O)C3CC3)cn2)cc1Nc1cccc(-c2ncn(C)n2)c1OC [Compound 13H] , thanks.
Result: 6.30 to 7.30

Ask: pIC50 lookup needed for CCC(=O)c1cnc(Nc2ccnc(OC3CCN(C)CC3)n2)cc1Nc1cccc(-c2ncn(C)n2)c1OC [Compound 18II] , thanks.
Result: ≤ 6.30

Continuing:
Ask: pIC50 lookup needed for CCC(=O)c1cnc(Nc2ccc(CN3C[C@@H](C)O[C@@H](C)C3)cn2)cc1Nc1cccc(-c2ncn(C)n2)c1OC , thanks.
Result: ≤ 6.30

* * *

Here's a batch of compounds along with measured IC50 for human JAK3 (Homo sapiens (Human)).

Ask: Observed IC50 on human JAK3 (Homo sapiens (Human)) for CCC(=O)c1cnc(Nc2cnc(C(F)(F)CN3CCCC3)cn2)cc1Nc1cccc(-c2ncn(C)n2)c1OC [Compound 19E] , please.
Result: ≥ 500 nM

Ask: Observed IC50 on human JAK3 (Homo sapiens (Human)) for CCC(=O)c1cnc(Nc2cc(C(N)=O)ccn2)cc1Nc1cccc(-c2ncn(C)n2)c1OC , please.
Result: ≥ 500 nM

Ask: Observed IC50 on human JAK3 (Homo sapiens (Human)) for CCC(=O)c1cnc(Nc2ccc(S(C)(=O)=O)cn2)cc1Nc1ccc(C(=O)N2CCCC2)cc1OC [Compound 13W] , please.
Result: 50 to 500 nM

Continuing:
Ask: Observed IC50 on human JAK3 (Homo sapiens (Human)) for CCC(=O)c1cnc(Nc2ccn(-c3ccccc3)c(=O)n2)cc1Nc1cccc(-c2ncn(C)n2)c1OC [Compound 20A] , please.
Result: ≥ 500 nM

Ask: Observed IC50 on human JAK3 (Homo sapiens (Human)) for CCC(=O)c1cnc(Nc2cnc(CN)cn2)cc1Nc1cccc(-c2ncn(C)n2)c1OC , please.
Result: ≥ 500 nM

Ask: Observed IC50 on human JAK3 (Homo sapiens (Human)) for CCC(=O)c1cnc(Nc2ccc(C3(S(C)(=O)=O)CC3)nn2)cc1Nc1cccc(-c2ncn(C)n2)c1OC [Compound 13V] , please.
Result: ≥ 500 nM

* * *

Quick reference for IC50 among some compounds
target: human JAK3 (Homo sapiens (Human), UniProt P52333)
Sequence (P52333 whole entry): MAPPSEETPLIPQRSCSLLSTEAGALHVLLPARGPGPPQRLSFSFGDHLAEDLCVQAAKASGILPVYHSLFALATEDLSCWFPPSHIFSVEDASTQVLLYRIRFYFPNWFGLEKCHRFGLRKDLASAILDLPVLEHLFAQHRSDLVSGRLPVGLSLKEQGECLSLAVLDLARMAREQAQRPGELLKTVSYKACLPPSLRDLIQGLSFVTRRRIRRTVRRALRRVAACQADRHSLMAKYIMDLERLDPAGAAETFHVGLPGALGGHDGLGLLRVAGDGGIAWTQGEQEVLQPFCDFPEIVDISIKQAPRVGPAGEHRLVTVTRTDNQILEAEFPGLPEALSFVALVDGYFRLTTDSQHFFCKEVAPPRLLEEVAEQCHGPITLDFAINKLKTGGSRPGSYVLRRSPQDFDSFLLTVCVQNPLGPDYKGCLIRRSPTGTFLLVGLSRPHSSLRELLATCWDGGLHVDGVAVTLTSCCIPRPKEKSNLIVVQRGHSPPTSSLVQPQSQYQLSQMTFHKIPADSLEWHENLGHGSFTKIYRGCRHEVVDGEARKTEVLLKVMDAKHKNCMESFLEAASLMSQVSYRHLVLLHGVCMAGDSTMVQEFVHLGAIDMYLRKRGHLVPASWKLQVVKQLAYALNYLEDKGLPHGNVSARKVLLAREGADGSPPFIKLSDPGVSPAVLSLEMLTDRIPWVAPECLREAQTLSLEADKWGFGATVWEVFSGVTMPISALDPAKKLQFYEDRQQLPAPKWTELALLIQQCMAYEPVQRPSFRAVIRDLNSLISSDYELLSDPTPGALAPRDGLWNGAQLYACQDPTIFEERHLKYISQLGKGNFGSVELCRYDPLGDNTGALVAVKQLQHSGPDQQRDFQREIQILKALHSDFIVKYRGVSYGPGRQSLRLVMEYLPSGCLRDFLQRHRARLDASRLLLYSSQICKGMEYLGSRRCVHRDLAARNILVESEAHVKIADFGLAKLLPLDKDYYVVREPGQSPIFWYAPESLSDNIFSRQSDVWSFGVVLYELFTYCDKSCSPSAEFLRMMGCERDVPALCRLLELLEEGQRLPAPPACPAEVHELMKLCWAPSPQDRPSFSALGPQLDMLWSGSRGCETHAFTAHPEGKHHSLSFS

Ask: IC50 lookup needed for COc1c(Nc2cc(Nc3ccc(-n4ccnc4)cn3)ncc2C(=O)C2CC2)cccc1-c1ncn(C)n1 [Compound 15Q] , thanks.
Result: ≥ 500 nM

Ask: IC50 lookup needed for CCC(=O)c1cnc(Nc2cccc(CN3CCOCC3)n2)cc1Nc1cccc(-c2ncn(C)n2)c1OC , thanks.
Result: ≥ 500 nM

Ask: IC50 lookup needed for CCC(=O)c1cnc(Nc2cnc(O[C@H]3CN(C)C[C@@H]3F)cn2)cc1Nc1cccc(-c2ncn(C)n2)c1OC , thanks.
Result: ≥ 500 nM

Ask: IC50 lookup needed for CCC(=O)c1cnc(Nc2ccc(C(C)N)nn2)cc1Nc1cccc(-c2ncn(C)n2)c1OC (centres unmarked) , thanks.
Result: ≥ 500 nM

Ask: IC50 lookup needed for CCC(=O)c1cnc(Nc2nc(CN3CCCC3)ns2)cc1Nc1cccc(-c2ncn(C)n2)c1OC [Compound 21H] , thanks.
Result: ≥ 500 nM

Continuing:
Ask: IC50 lookup needed for CCC(=O)c1cnc(Nc2cnc(O[C@@H]3CCN(C)C3)cn2)cc1Nc1cccc(-c2ncn(C)n2)c1OC [Compound 18UU] , thanks.
Result: ≥ 500 nM

Ask: IC50 lookup needed for CCC(=O)c1cnc(Nc2ccc(OCC3COC3)cn2)cc1Nc1cccc(-c2ncn(C)n2)c1OC [Compound 18AA] , thanks.
Result: 50 to 500 nM

Ask: IC50 lookup needed for CCC(=O)c1cnc(NC(=O)C2CC2)cc1Nc1cc(COC)cc(-c2ncn(C)n2)c1OC [Compound 25E] , thanks.
Result: ≥ 500 nM

* * *

target: TYK2 JH2 domain (Homo sapiens (Human)); assay: TYK2 JH2 NanoBRET assay; assay type: binding; settings: Table 20, read-out: TYK2 IC50
quantity kind: IC50

Below: 8 compounds and their reported IC50.
Ask: IC50 lookup needed for CCC(=O)c1cnc(Nc2ncc(O[C@@H]3CCN(C)C3)cc2F)cc1Nc1cccc(-c2ncn(C)n2)c1OC [Compound 18XXX] , thanks.
Result: 5 to 50 nM

Ask: IC50 lookup needed for CCC(=O)c1cnc(Nc2cccc(CS(C)(=O)=O)n2)cc1Nc1cccc(-c2ncn(C)n2)c1OC [Compound 13N] , thanks.
Result: 5 to 50 nM

Ask: IC50 lookup needed for CCC(=O)c1cnc(Nc2cnc(O[C@H]3CN[C@@H](C(F)F)C3)cn2)cc1Nc1cccc(-c2ncn(C)n2)c1OC [Compound 18000] , thanks.
Result: 5 to 50 nM

Ask: IC50 lookup needed for CCC(=O)c1cnc(Nc2csc(CN3CCCC3)n2)cc1Nc1cccc(-c2ncn(C)n2)c1OC [Compound 21F] , thanks.
Result: 5 to 50 nM

Ask: IC50 lookup needed for CCC(=O)c1cnc(Nc2cc(C(=O)N(C)C)ncn2)cc1Nc1cccc(-c2ncn(C)n2)c1OC [Compound 8O] , thanks.
Result: < 5 nM

Ask: IC50 lookup needed for CCO[C@H]1C[C@@H](n2ccc(Nc3cc(Nc4cccc(-c5ncn(C)n5)c4OC)c(C(=O)CC)cn3)n2)C1 [Compound 21CC] , thanks.
Result: 5 to 50 nM

Ask: IC50 lookup needed for CCC(=O)c1cnc(Nc2ccc(-n3ccccc3=O)cn2)cc1Nc1cccc(-c2ncn(C)n2)c1OC [Compound 15A] , thanks.
Result: < 5 nM

Ask: IC50 lookup needed for CCC(=O)c1cnc(Nc2ccc(-c3cccn(C)c3=O)cn2)cc1Nc1cccc(-c2ncn(C)n2)c1OC [Compound 16A] , thanks.
Result: < 5 nM

Continuing:
Ask: IC50 lookup needed for CCC(=O)c1cnc(Nc2ccc(O[C@H]3CCN(C)C3)cn2)cc1Nc1cccc(-c2ncn(C)n2)c1OC [Compound 18W] , thanks.
Result: < 5 nM

Ask: IC50 lookup needed for CCC(=O)c1cnc(Nc2ccc(CN3CC(F)C3)cn2)cc1Nc1cccc(-c2ncn(C)n2)c1OC [Compound 9EE] , thanks.
Result: < 5 nM

Ask: IC50 lookup needed for CCC(=O)c1cnc(Nc2ccc(CN3CC[C@@H](F)C3)cn2)cc1Nc1cccc(-c2ncn(C)n2)c1OC [Compound 9JJ] , thanks.
Result: < 5 nM

Ask: IC50 lookup needed for CCC(=O)c1cnc(Nc2ccc(OCCCN3CCCC3)nn2)cc1Nc1cccc(-c2ncn(C)n2)c1OC [Compound 18DD] , thanks.
Result: < 5 nM

Ask: IC50 lookup needed for CCC(=O)c1cnc(Nc2ccc(OCCN3CCCC3)nn2)cc1Nc1cccc(-c2ncn(C)n2)c1OC [Compound 18CC] , thanks.
Result: < 5 nM

Ask: IC50 lookup needed for CCC(=O)c1cnc(Nc2ccc(C3(N(C)C)CC3)cn2)cc1Nc1cccc(-c2ncn(C)n2)c1OC [Compound 9Q] , thanks.
Result: < 5 nM

Ask: IC50 lookup needed for [2H]C([2H])([2H])N1CC[C@@H](Oc2ccc(Nc3cc(Nc4cccc(-c5ncn(C)n5)c4OC)c(C(=O)CC)cn3)nc2)C1 [Compound 18X] , thanks.
Result: < 5 nM

Ask: IC50 lookup needed for CCC(=O)c1cnc(Nc2cc(CN3CCCC3)ccn2)cc1Nc1cccc(-c2ncn(C)n2)c1OC [Compound 9IIII] , thanks.
Result: < 5 nM

Ask: IC50 lookup needed for CCC(=O)c1cnc(Nc2cnc(C3(N)CC3)cn2)cc1Nc1cccc(-c2ncn(C)n2)c1OC [Compound 9YYY] , thanks.
Result: 5 to 50 nM

Ask: IC50 lookup needed for COc1c(-c2ncn(C)n2)ccnc1Nc1cc(Nc2ccc(-c3ncn(C)n3)cn2)ncc1C(=O)C1CC1 [Compound 15O] , thanks.
Result: 5 to 50 nM

Ask: IC50 lookup needed for CCC(=O)c1cnc(NC(=O)[C@@H]2C[C@H]2C(N)=O)cc1Nc1cccc(-c2ncn(C)n2)c1OC [Compound 22E] , thanks.
Result: ≥ 500 nM

Ask: IC50 lookup needed for CCC(=O)c1cnc(Nc2ccc(-n3ccncc3=O)cn2)cc1Nc1cccc(-c2ncn(C)n2)c1OC [Compound 15V] , thanks.
Result: < 5 nM

Ask: IC50 lookup needed for CCC(=O)c1cnc(Nc2ccn([C@H]3C[C@H](C#N)C3)n2)cc1Nc1cccc(-c2ncn(C)n2)c1OC [Compound 210] , thanks.
Result: 5 to 50 nM

Ask: IC50 lookup needed for CCC(=O)c1cnc(Nc2ccn(CC3COC3)n2)cc1Nc1cccc(-c2ncn(C)n2)c1OC [Compound 21R] , thanks.
Result: 5 to 50 nM

Ask: IC50 lookup needed for CCC(=O)c1cnc(Nc2ccc(C(NC)C(F)(F)F)cn2)cc1Nc1cccc(-c2ncn(C)n2)c1OC (centres unmarked) [Compound 9S] , thanks.
Result: < 5 nM

Ask: IC50 lookup needed for CCC(=O)c1cnc(Nc2ccc(CCN3CCCC3)cn2)cc1Nc1cccc(-c2ncn(C)n2)c1OC [Compound 11C] , thanks.
Result: < 5 nM

Ask: IC50 lookup needed for CCC(=O)c1cnc(Nc2ccc(CN(C)CC(F)(F)F)cn2)cc1Nc1cccc(-c2ncn(C)n2)c1OC [Compound 9X] , thanks.
Result: 5 to 50 nM

Ask: IC50 lookup needed for CCC(=O)c1cnc(Nc2cnc(OCCn3cnc(C)c3)cn2)cc1Nc1cccc(-c2ncn(C)n2)c1OC [Compound 18HHH] , thanks.
Result: 5 to 50 nM

Ask: IC50 lookup needed for CCC(=O)c1cnc(NC(=O)C2CC2c2ccn(C)n2)cc1Nc1cccc(-c2ncn(C)n2)c1OC (centres unmarked) [Compound 22M] , thanks.
Result: 50 to 500 nM

Ask: IC50 lookup needed for CCC(=O)c1cnc(Nc2cc3c(cn2)B(O)OC3)cc1Nc1cccc(-c2ncn(C)n2)c1OC [Compound 15CC] , thanks.
Result: < 5 nM

Ask: IC50 lookup needed for CCC(=O)c1cnc(Nc2ccc(CCN(C)C)cn2)cc1Nc1cccc(-c2ncn(C)n2)c1OC [Compound 11A] , thanks.
Result: < 5 nM
